Molecular target: hSTING-R232 (Homo sapiens, UniProt Q86WV6, H232R)
Construct: recombinant mouse or human STING protein (aa140-379); 6xHis-SUMO elsewhere) (cleaved yes); made in house
Sequence (Q86WV6 140-379 H232R): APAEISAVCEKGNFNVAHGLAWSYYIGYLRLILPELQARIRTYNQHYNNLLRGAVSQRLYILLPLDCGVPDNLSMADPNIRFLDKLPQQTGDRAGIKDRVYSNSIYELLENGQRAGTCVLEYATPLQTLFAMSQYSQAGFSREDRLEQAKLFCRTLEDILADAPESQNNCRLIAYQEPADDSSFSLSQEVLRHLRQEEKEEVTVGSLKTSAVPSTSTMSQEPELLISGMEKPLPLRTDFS
Experiment: STING Differential Scanning Fluorimetry (DSF) assay, human
Type: binding
Conditions: human STING R232-WT, 5 μM protein
Metric: WT_DSF_hSWAT Tm Shift (° C.)

COC1CC(CN(C)c2ccc3c(=O)c4ccc(Cl)c(SC)c4n(CC(=O)O)c3n2)C1 (stereo not shown) [Compound 39] | D (“D” > 7° C.)
CN(C)c1ccc2c(=O)c3ccc(Cl)c(N(C)C)c3n(CC(=O)O)c2n1 [Compound 19] | D (“D” > 7° C.)
CSc1c(Cl)ccc2c(=O)c3ccc(C4(C)CC4)nc3n(CC(=O)O)c12 [Compound 68] | D (“D” > 7° C.)

====

The following molecules are listed with their measured Emax values.
Biological target: STING protein (Homo sapiens, UniProt Q86WV6, H232R)
Construct: host or cells: THP-1 dual reporter cells, TMEM173 modified from HAQ to R232 (THP1-dual-KI R232)
Sequence (Q86WV6 whole entry H232R): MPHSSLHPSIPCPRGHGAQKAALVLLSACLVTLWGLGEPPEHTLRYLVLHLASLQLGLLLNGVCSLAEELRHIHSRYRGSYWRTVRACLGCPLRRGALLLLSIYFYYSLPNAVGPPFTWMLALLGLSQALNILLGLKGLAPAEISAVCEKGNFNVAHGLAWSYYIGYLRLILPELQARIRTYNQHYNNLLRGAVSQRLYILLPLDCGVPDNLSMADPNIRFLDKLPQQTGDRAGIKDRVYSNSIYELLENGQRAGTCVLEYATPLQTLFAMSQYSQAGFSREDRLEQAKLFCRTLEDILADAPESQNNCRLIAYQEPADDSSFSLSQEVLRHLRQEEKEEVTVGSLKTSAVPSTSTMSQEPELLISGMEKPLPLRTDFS
Experiment: Cell based reporter assay of IRF activation (THP1-dual-KI R232, IRF luciferase)
Conditions: THP-1; read-out: THP1-dual-KI R232_IRF(Luciferase)_Activity Maximum measured (%)

CSc1c(Cl)ccc2c(=O)c3ccc(N(C)CCn4ccnc4)nc3n(CC(=O)O)c12 | 5 to 25%
CSc1c(Cl)ccc2c(=O)c3ccc(C(C)(C)C)nc3n(CC(=O)O)c12 | > 50%
COCCN(C)c1nc2c(cc1Cl)c(=O)c1ccc(Cl)c(SC)c1n2CC(=O)O | > 50%

Could you now consider this next molecule?
Emax value, target or system STING protein (Homo sapiens, UniProt Q86WV6, H232R), for CCOc1c(Cl)ccc2c(=O)c3ccc(C(C)(C)C#N)nc3n(CC(=O)O)c12 : > 50%

====

Target: STING protein (Homo sapiens, UniProt Q86WV6, H232R)
Construct: host or cells: THP-1 dual reporter cells, TMEM173 modified from HAQ to R232 (THP1-dual-KI R232)
Assay: Cell based reporter assay of IRF activation (THP1-dual-KI R232, IRF luciferase)
Details: THP-1; read-out: THP1-dual-KI R232_IRF(Luciferase)_Activity Maximum measured (%)
Catalogue of molecules with associated Emax

Study these solved cases before continuing.
CSc1c(Cl)ccc2c(=O)c3ccc(N(C)CCS(C)(=O)=O)nc3n(CC(=O)O)c12 | 25 to 50%
CCOc1c(Cl)ccc2c(=O)c3ccc(C)nc3n(CC(=O)O)c12 | > 50%
CO[C@H]1C[C@@H](N(C)c2nc3c(cc2Cl)c(=O)c2ccc(Cl)c(SC)c2n3CC(=O)O)C1 | > 50%

Now for a further molecule.
Quick note, Emax for CN(C)c1c(Cl)ccc2c(=O)c3ccc(N(C)CCn4ccnc4)nc3n(CC(=O)O)c12 landed at > 50%

====

Target: hSTING-R232 (Homo sapiens, UniProt Q86WV6, H232R)
Construct: recombinant mouse or human STING protein (aa140-379); 6xHis-SUMO elsewhere) (cleaved yes); made in house
Assay: STING Differential Scanning Fluorimetry (DSF) assay, human
Type: binding
Settings: human STING R232-WT, 5 μM protein
Metric: WT_DSF_hSWAT Tm Shift (° C.)

Examples from the recorded data:
CSc1c(Cl)ccc2c(=O)c3ccc(N(CC4CC4)CC4COC4)nc3n(CC(=O)O)c12 | D (“D” > 7° C.)
CO[C@H]1C[C@@H](N(C)c2ccc3c(=O)c4ccc(Cl)c(SC)c4n(CC(=O)O)c3n2)C1 (single isomer, unassigned) | D (“D” > 7° C.)
CSc1c(Cl)ccc2c(=O)c3ccc(N(C)CC4CC(F)(F)C4)nc3n(CC(=O)O)c12 | D (“D” > 7° C.)
COC1CC(CN(CC2CC2)c2ccc3c(=O)c4ccc(Cl)c(SC)c4n(CC(=O)O)c3n2)C1 (stereo not drawn) | D (“D” > 7° C.)
CSc1c(Cl)ccc2c(=O)c3ccc(N(C)C4CC5(CCC5)C4)nc3n(CC(=O)O)c12 | D (“D” > 7° C.)

Attention now shifts to the item below.
Value of WT_DSF_hSWAT Tm Shift (° C.) reported for the compound CSc1c(Cl)ccc2c(=O)c3ccc(N(CC4CC4)C4CC(F)(F)C4)nc3n(CC(=O)O)c12 is D (“D” > 7° C.)

====

Overview of reported IC50 across a group of compounds:
Molecular target: human STING protein (140-379) (Homo sapiens, UniProt Q86WV6, H232R)
Construct: 6XHIS-SUMO-hSTING (140-379)
Test: Radiometric filtration binding competition assay (WT_FBA_HIS-SUMO-hSWAT)
Conditions: read-out: WT-hSWAT IC50

COc1ccc2c(=O)c3ccc(Cl)c(N(C)C)c3n(CC(=O)O)c2n1 [Compound 21] | 20 to 100 µM
Cc1ccc2c(=O)c3c(O)cc(Cl)c(N(C)C)c3n(CC(=O)O)c2n1 [Compound 9] | 100 to 300 µM
CN(C)c1c(Cl)ccc2c(=O)c3ccc(N(C)CCn4ccnc4)nc3n(CC(=O)O)c12 [Compound 80] | 20 to 100 µM
CO[C@H]1C[C@H](N(C)c2ccc3c(=O)c4ccc(Cl)c(SC)c4n(CC(=O)O)c3n2)C1 (single isomer, unassigned) [Compound 70] | < 20 µM
CO[C@H]1C[C@@H](N(C)c2ccc3c(=O)c4ccc(Cl)c(SC)c4n(CC(=O)O)c3n2)C1 (single isomer, unassigned) [Compound 44] | 20 to 100 µM
Cc1ccc2c(=O)c3ccc(Cl)c(N(C)C)c3n(CC(=O)O)c2n1 [Compound 4] | 20 to 100 µM
CSc1c(Cl)ccc2c(=O)c3ccc(NCC4COC4)nc3n(CC(=O)O)c12 [Compound 55] | 20 to 100 µM
CSc1c(Cl)ccc2c(=O)c3ccc(N(C)C4CC(C)(C)C4)nc3n(CC(=O)O)c12 [Compound 48] | < 20 µM

Documented IC50 of CSc1c(Cl)ccc2c(=O)c3ccc(N(C)CC4CC(F)(F)C4)nc3n(CC(=O)O)c12 [Compound 36] : 20 to 100 µM

IC50 in this record for Cc1ccc2c(=O)c3ccc(N(C)C)nc3n(CC(=O)O)c2c1N(C)C [Compound 61] : 20 to 100 µM

Briefly, IC50 measured for Cc1ccc2c(=O)c3ccc(Cl)c(N(C)C)c3n(CC(=O)NS(C)(=O)=O)c2n1 [Compound 10] : > 300 µM

Recorded result, CSc1c(Cl)ccc2c(=O)c3ccc(N(C)C)nc3n(CC(=O)O)c12 [Compound 22] , IC50: 20 to 100 µM

# compound CSc1c(Cl)ccc2c(=O)c3ccc(N(C)CCn4ccnc4)nc3n(CC(=O)O)c12 [Compound 71] ; its IC50 = 20 to 100 µM

// CN(C)c1ccc2c(=O)c3ccc(Cl)c(N(C)C)c3n(CC(=O)O)c2n1 [Compound 19] : IC50 value = 20 to 100 µM

Field IC50 (entry CSc1c(Cl)ccc2c(=O)c3cc(Cl)c(N(C)CC4CCOCC4)nc3n(CC(=O)O)c12 [Compound 76] ) reads < 20 µM

Entry under test: CN(C)c1c(Cl)ccc2c(=O)c3ccc(NCC4CC(F)(F)C4)nc3n(CC(=O)O)c12 [Compound 53] . Its IC50 was < 20 µM

IC50 in this record for CSc1c(Cl)ccc2c(=O)c3cc(Cl)c(N(C)C)nc3n(CC(=O)O)c12 [Compound 58] : < 20 µM

Reported IC50 for COC1CC(CN(C)c2ccc3c(=O)c4ccc(Cl)c(SC)c4n(CC(=O)O)c3n2)C1 (centres unmarked) [Compound 39] was 20 to 100 µM

# IC50 (compound: CCc1nc2c(cc1Cl)c(=O)c1ccc(Cl)c(N(C)C)c1n2CC(=O)O [Compound 17] ) is 20 to 100 µM

Entry CSc1c(Cl)ccc2c(=O)c3ccc(N(C)c4ccccc4)nc3n(CC(=O)O)c12 [Compound 73] ; IC50 = < 20 µM

Reported IC50 for COc1c(Cl)ccc2c(=O)c3ccc(C(C)C)nc3n(CC(=O)O)c12 [Compound 1] was 100 to 300 µM

The compound listed as CN(C)c1c(Cl)ccc2c(=O)c3ccc(Nc4ccccc4)nc3n(CC(=O)O)c12 [Compound 6] has a reported IC50 of < 20 µM

Item: CCOc1c(Cl)ccc2c(=O)c3ccc(C(C)C)nc3n(CC(=O)O)c12 [Compound 3] | IC50: 20 to 100 µM

====

Biological target: human STING protein (140-379) (Homo sapiens, UniProt Q86WV6, H232R)
Construct: 6XHIS-SUMO-hSTING (140-379)
Experiment: Radiometric filtration binding competition assay (WT_FBA_HIS-SUMO-hSWAT)
Conditions: read-out: WT-hSWAT IC50
Metric: IC50

Completed entries (count: 4):
CCc1ccc2c(=O)c3ccc(Cl)c(N(C)C)c3n(CC(=O)O)c2n1 | < 20 µM
COCCN(c1ccc2c(=O)c3ccc(Cl)c(SC)c3n(CC(=O)O)c2n1)[C@H]1C[C@@H](OC)C1 | 100 to 300 µM
CO[C@H]1C[C@@H](N(C)c2nc3c(cc2Cl)c(=O)c2ccc(Cl)c(SC)c2n3CC(=O)O)C1 | < 20 µM
CSc1c(Cl)ccc2c(=O)c3ccc(N(C)C4CC(OC(F)F)C4)nc3n(CC(=O)O)c12 (centres unmarked) | 20 to 100 µM

So for CCOc1c(Cl)ccc2c(=O)c3ccc(C(C)=O)nc3n(CC(=O)O)c12 , the logged IC50 turned out to be 100 to 300 µM

Short answer for CSc1c(Cl)ccc2c(=O)c3ccc(N(CC4CC4)C4CC(OC(F)F)C4)nc3n(CC(=O)O)c12 (centres unmarked) : IC50 was < 20 µM

Record summary for CSc1c(Cl)ccc2c(=O)c3ccc(N(C)C4CC5(CCC5)C4)nc3n(CC(=O)O)c12 : reported IC50 = < 20 µM

# IC50 (molecule: COC1CC(CN(CC2CC2)c2ccc3c(=O)c4ccc(Cl)c(SC)c4n(CC(=O)O)c3n2)C1 (centres unmarked) ) is 20 to 100 µM
